B1: library; numbered along this chain (parent)
chain: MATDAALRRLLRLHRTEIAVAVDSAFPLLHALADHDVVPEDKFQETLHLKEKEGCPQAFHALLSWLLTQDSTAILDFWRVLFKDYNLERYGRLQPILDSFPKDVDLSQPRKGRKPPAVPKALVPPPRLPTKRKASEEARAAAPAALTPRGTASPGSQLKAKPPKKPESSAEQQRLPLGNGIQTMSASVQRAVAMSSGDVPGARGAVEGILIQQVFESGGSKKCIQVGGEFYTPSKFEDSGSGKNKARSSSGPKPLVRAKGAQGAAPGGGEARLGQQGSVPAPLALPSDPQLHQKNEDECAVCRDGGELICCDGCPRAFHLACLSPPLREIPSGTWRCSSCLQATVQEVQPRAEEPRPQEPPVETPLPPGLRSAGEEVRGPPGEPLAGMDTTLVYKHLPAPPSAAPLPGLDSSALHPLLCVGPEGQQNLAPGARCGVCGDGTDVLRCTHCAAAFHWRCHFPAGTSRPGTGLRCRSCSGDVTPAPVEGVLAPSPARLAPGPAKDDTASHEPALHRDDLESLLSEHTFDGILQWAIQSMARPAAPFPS

# Variants of: B1
# Procedure summary: AIRE transcriptional activation functional score (insulin promoter-GFP; nonsense median 0, synonymous median 1) (normalised score); higher = higher AIRE activity (more reporter activation)
# Test parameters: with insulin promoter-GFP reporter in HEK293
Collected AIRE transcriptional activation functional score values appear next to each entry.
Experimental endpoint: AIRE transcriptional activation functional score

{"columns": ["Mutant id", "Test result"],
 "data": [
  ["G204T", 1],
  ["Q213K", 1.02],
  ["G240R", 1.01],
  ["G227Q", 1.02]
]}

Data provenance: the supplement of paper PMC12667976
